Data credit: patent US7981903B2

Molecular target: human IGF1R (hIGF1R) (Homo sapiens, UniProt P08069)
Construct: containing amino acid residues 957-1367 of human IGF1R; made in house; host or cells: Sf9 cells (baculovirus)
Sequence (P08069 957-1367): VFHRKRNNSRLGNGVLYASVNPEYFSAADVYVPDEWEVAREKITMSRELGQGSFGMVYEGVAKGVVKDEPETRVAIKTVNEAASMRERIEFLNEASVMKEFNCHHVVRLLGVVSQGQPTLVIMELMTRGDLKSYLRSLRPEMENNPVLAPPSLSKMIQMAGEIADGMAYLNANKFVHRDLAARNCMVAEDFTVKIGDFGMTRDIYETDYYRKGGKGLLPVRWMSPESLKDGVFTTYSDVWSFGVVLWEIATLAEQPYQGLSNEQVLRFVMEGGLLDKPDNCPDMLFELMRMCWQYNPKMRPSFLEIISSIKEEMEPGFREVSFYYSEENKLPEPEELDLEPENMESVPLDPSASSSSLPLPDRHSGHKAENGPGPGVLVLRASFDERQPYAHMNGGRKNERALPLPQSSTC
Test: TR-FRET kinase assay of purified hIGF1R
Type: biochemical
Conditions: activated hIGF1R 0.5 nM, 10 μM ATP, values given as pIC50 category, read-out: IGF-1R pIC50 (converted)
ASSAY_METRIC: IC50

// below: answered molecules
MOLECULE | IC50
CCC(C)N1CCc2cc(OC)c(Nc3nc(Nc4cccc(F)c4C(=O)NC)c4cc[nH]c4n3)cc2C1 (stereo not drawn) [Example 238] | 5.01 to 200 nM
CNC(=O)c1c(F)cccc1Nc1nc(Nc2cc3c(cc2OC)CCN3C(=O)CN2CCCC2)nc2[nH]ccc12 [Example 139] | 1.26 to 3.98 nM
Cc1cc(N2CCOCC2)ccc1Nc1nc(Nc2ccccc2C(N)=O)c2cc[nH]c2n1 [Example 11] | 1.26 to 3.98 nM
CNC(=O)c1c(F)cccc1Nc1nc(Nc2cc(NC(=O)CN(C)C)c(C)cc2OC)nc2[nH]ccc12 [Example 256] | 0.251 to 1 nM
COc1cc2c(cc1Nc1nc(Nc3cc(F)cc(F)c3C(=O)NCC(C)C)c3cc[nH]c3n1)N(C(=O)CN(C)C)CC2 [Example 154] | 1.26 to 3.98 nM
Cc1ccc(NC(=O)CN(C)C)cc1Nc1nc(Nc2ccccc2C(=O)NO)c2cc[nH]c2n1 [Example 28] | 0.251 to 1 nM
COc1cc2c(cc1Nc1nc(Nc3cccc(F)c3C(N)=O)c3cc[nH]c3n1)N(C(=O)CN(C)C)CCC2 [Example 210] | 0.251 to 1 nM
COc1cc2c(cc1Nc1nc(Nc3ccc(F)c(F)c3C(=O)NC(C)C)c3cc[nH]c3n1)N(C(=O)CN(C)C)CC2 [Example 161] | 5.01 to 200 nM

Prompt: Can you look up IC50 on human IGF1R (hIGF1R) (Homo sapiens, UniProt P08069) for COc1cc2c(cc1Nc1nc(Nc3cc(F)cc(F)c3C(=O)NCc3ccc(F)cc3)c3cc[nH]c3n1)N(C(=O)CN(C)C)CC2 [Example 155] ?
Completion: 1.26 to 3.98 nM

Prompt: Can you look up IC50 on human IGF1R (hIGF1R) (Homo sapiens, UniProt P08069) for COc1cc(N2CCCN(C)CC2)ccc1Nc1nc(Nc2cccc(F)c2C(N)=O)c2cc[nH]c2n1 [Example 209] ?
Completion: 1.26 to 3.98 nM

Prompt: Can you look up IC50 on human IGF1R (hIGF1R) (Homo sapiens, UniProt P08069) for CCCN1CCCC(c2ccc(Nc3nc(Nc4ccccc4C(N)=O)c4cc[nH]c4n3)c(OC)c2)C1 (stereo not drawn) [Example 3] ?
Completion: 0.251 to 1 nM

Prompt: Can you look up IC50 on human IGF1R (hIGF1R) (Homo sapiens, UniProt P08069) for CNC(=O)c1c(F)cccc1Nc1nc(Nc2cc3c(cc2C)CCCN3C(=O)CN(C)C)nc2[nH]ccc12 [Example 247] ?
Completion: 5.01 to 200 nM

Prompt: Can you look up IC50 on human IGF1R (hIGF1R) (Homo sapiens, UniProt P08069) for COc1cc2c(cc1Nc1nc(Nc3cccc(F)c3C(N)=O)c3cc[nH]c3n1)N(C(=O)CCN1CCN(C(C)C)CC1)CC2 [Example 188] ?
Completion: 5.01 to 200 nM

Prompt: Can you look up IC50 on human IGF1R (hIGF1R) (Homo sapiens, UniProt P08069) for COc1cc(N2CCOC[C@@H]2C)ccc1Nc1nc(Nc2cccc(F)c2C(N)=O)c2cc[nH]c2n1 [Example 49] ?
Completion: 1.26 to 3.98 nM

Prompt: Can you look up IC50 on human IGF1R (hIGF1R) (Homo sapiens, UniProt P08069) for COc1cc(N2CCC(N3CC[C@@H](F)C3)CC2)ccc1Nc1nc(Nc2cc(F)ccc2C(N)=O)c2cc[nH]c2n1 [Example 76] ?
Completion: 0.251 to 1 nM
